Could you please report measured Ki for the items listed next?
Molecular target: Dimer of Gag-Pol polyprotein [489-587] (Human immunodeficiency virus 1, UniProt P12497)
Construct: 489-587
Test: Protease Inhibition Assay
Settings: pH 5; 22 °C
Answers are plain numbers, in nM.

Guide cases for Ki, answers given:
molecule	testedSystem	quantityUnit	Ki
CC(C)(C)OC(=O)NCCC(=O)Nc1cccc(C(c2c(O)c3ccccc3oc2=O)C2CC2)c1 (centres undefined)	Dimer of Gag-Pol polyprotein [489-587] (Human immunodeficiency virus 1, UniProt P12497)	nM	86
CCC(c1cccc(NC(=O)CCNC(=O)OC(C)(C)C)c1)c1c(O)c2ccc(OC)cc2oc1=O (centres undefined)	Dimer of Gag-Pol polyprotein [489-587] (Human immunodeficiency virus 1, UniProt P12497)	nM	170
CCC(c1cccc(C(=O)NCc2nc3ccccc3[nH]2)c1)c1c(O)c2ccccc2oc1=O (centres undefined)	Dimer of Gag-Pol polyprotein [489-587] (Human immunodeficiency virus 1, UniProt P12497)	nM	4400

Proceed to the following item.
Entry CCC(c1cccc(C(=O)N[C@H](C(=O)NCc2ccccn2)C(C)CC)c1)c1c(O)c2ccccc2oc1=O (some centres undefined) ; assay system Dimer of Gag-Pol polyprotein [489-587] (Human immunodeficiency virus 1, UniProt P12497); Ki recorded at 400
